- target_system: human TGR5 (Homo sapiens, UniProt Q8TDU6)
- Construct: expressed in transfected cells; host or cells: HEK293
- Sequence (Q8TDU6 whole entry): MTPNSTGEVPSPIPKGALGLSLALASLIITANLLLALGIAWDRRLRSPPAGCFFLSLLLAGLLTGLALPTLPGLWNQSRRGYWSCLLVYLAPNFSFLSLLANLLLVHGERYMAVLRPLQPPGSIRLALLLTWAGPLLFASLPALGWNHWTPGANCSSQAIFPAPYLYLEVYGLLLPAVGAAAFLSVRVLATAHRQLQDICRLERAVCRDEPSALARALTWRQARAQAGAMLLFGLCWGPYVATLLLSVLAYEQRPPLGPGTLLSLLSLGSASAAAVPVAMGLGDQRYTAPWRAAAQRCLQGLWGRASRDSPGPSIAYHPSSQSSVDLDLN
- procedure_text: Cell-based TGR5 assay (cAMP generation, HTRF)
- assay_conditions: HEK293 cells stably transfected with human TGR5; cAMP by HTRF; 30 minutes at 37° C.; read-out: pEC50 Human TGR5 (converted)
Recorded measurements of EC50, one per entry

Input Cc1ccc(CCCCC(=O)N(C)C[C@H](O)[C@@H](O)[C@H](O)[C@H](O)CO)cc1COC1(c2cnccc2-c2ccccc2OC2CC2)CC1 (stereo in doubt) [Compound I-236] . Output EC50: < 100 nM

Notebook: COCc1ccccc1-c1ccncc1C1(NCc2cc(Cl)ccc2Cl)CC1 [Compound I-12] , EC50 read as 126 to 1000 nM

The compound listed as COc1ccccc1-c1ccncc1C1(NCc2cc(Cl)c(CCCCC(=O)N(C)C[C@H](O)[C@@H](O)[C@H](O)[C@H](O)CO)cc2Cl)CC1 [Compound I-134] shows EC50 equal to 126 to 1000 nM

Briefly, EC50 measured for CS(=O)(=O)NCCCN(CCCCSc1ccc(Cl)c(COC2(c3cnccc3-c3ccccc3OC3CC3)CC2)c1)C(=O)[C@@H](O)[C@@H](O)[C@H](O)[C@@H](O)CO [Compound I-577] : < 100 nM

So for CN(CCCCNC(=O)[C@@H](O)[C@@H](O)[C@H](O)[C@@H](O)CO)S(=O)(=O)c1ccc(Cl)c(COC2(c3cnccc3-c3ccccc3OC3CC3)CC2)c1 [Compound I-458] , the logged EC50 turned out to be < 100 nM

###

- target_system: human TGR5 (Homo sapiens, UniProt Q8TDU6)
- Construct: expressed in transfected cells; host or cells: HEK293
- procedure_text: Cell-based TGR5 assay (cAMP generation, HTRF)
- assay_conditions: HEK293 cells stably transfected with human TGR5; cAMP by HTRF; 30 minutes at 37° C.; read-out: pEC50 Human TGR5 (converted)
reported_endpoint: EC50

Kindly note the recorded EC50 for C[C@@H](CCCCNC(=O)NC[C@H](O)[C@@H](O)[C@H](O)[C@H](O)CO)c1ccc(Cl)c(CNC2(c3cnccc3-c3ccccc3OC3CC3)CC2)c1 (single isomer, unassigned) , which is < 100 nM

Lab note: measured EC50 of O=C(NCCC1CN(S(=O)(=O)c2ccc(Cl)c(COC3(c4cnccc4-c4ccccc4OC4CC4)CC3)c2)C1)NC[C@H](O)[C@@H](O)[C@H](O)[C@H](O)CO was < 100 nM

Noted for O=C(CCCCc1cc(Cl)c(COC2(c3cnccc3-c3ccccc3OC3CC3)CC2)cc1Cl)N(CCO)C[C@H](O)[C@@H](O)[C@H](O)[C@H](O)CO : its EC50 reads < 100 nM

Please fill in: EC50 reported for NC(=O)CN(CCCCc1cc(Cl)c(COC2(c3cnccc3-c3ccccc3OC3CC3)CC2)cc1Cl)C(=O)[C@@H](O)[C@@H](O)[C@H](O)[C@@H](O)CO = < 100 nM

Sure, the documented EC50 for CC(C)N(CCCCNC(=O)N[C@@H](CO)[C@@H](O)[C@H](O)[C@H](O)CO)S(=O)(=O)c1ccc(Cl)c(COC2(c3cnccc3-c3ccccc3OC3CC3)CCOC2)c1 (stereo partly drawn) is < 100 nM

What the record says about O=C(CCCCc1cc(Cl)c(COC2(c3cnccc3-c3ccccc3OC3CC3)CC2)cc1Cl)NC[C@H](O)[C@@H](O)[C@H](O)[C@H](O)CO : EC50 is < 100 nM

Form field EC50, entry Cc1ccc(C(C)CCCC(=O)N(CCN(C)C)C[C@H](O)[C@@H](O)[C@H](O)[C@H](O)CO)cc1CNC1(c2cnccc2-c2ccccc2OC2CC2)CC1 (stereo partly drawn) : 126 to 1000 nM

Per the record, C[C@H](CCCCNC(=O)NC[C@H](O)[C@@H](O)[C@H](O)[C@H](O)CO)c1ccc(Cl)c(CNC2(c3cnccc3-c3ccccc3OC3CC3)CC2)c1 (single isomer, unassigned) has EC50 of < 100 nM
